- System: rat RANKL mRNA
- method_notes: Antisense inhibition of rat RANKL mRNA levels in UMR-106 cells, quantitative real-time PCR (Table 3)
- Format: cell-based
- Parameters: concentration or dose not given beside the values
- setup_conditions: averages from three experiments
Strand notation (5' to 3'): a small letter for the sugar, then the base; units joined by * are phosphorothioate-linked, units joined directly phosphodiester-linked; [ ] holds rarer units or linkages, { } end groups; capitals alone tell only the bases. e = 2'-O-(2-methoxyethyl) (MOE); [5mC] = 5-methylcytosine; d = 2'-deoxy (DNA)
In this section we review reported % INHIB (inhibition of rat RANKL mRNA levels) values for a set of substances.
Note: unit % is implicit; provide only the numeric part.

Worked set:
286621 (antisense eA*eA*eG*e[5mC]*e[5mC]*dA*dT*d[5mC]*dT*dT*dG*dG*dT*dT*dA*eA*e[5mC]*e[5mC]*e[5mC]*eT) [compound 286621]; 33
286639 (antisense e[5mC]*e[5mC]*e[5mC]*eA*eA*dA*dG*dT*dA*d[5mC]*dG*dT*d[5mC]*dG*d[5mC]*eA*eT*e[5mC]*eT*eT) [compound 286639]; 48

Observed % INHIB (inhibition of rat RANKL mRNA levels), rat RANKL mRNA, 286628 (antisense eA*eG*eA*eT*eA*dG*dT*d[5mC]*d[5mC]*dG*d[5mC]*dA*dG*dG*dT*eA*e[5mC]*eG*e[5mC]*eT) [compound 286628] : 24

###

In this section we review reported % Inhibition of RANKL mRNA values for a set of substances.
- Tested on: mouse RANKL mRNA
- method_notes: Antisense inhibition of mouse RANKL mRNA in C2C12 cells: dose response (Table 5)
- Type: cell-based
- setup_conditions: 50 nM oligonucleotide, relative to untreated control
Strand notation (5' to 3'): a small letter for the sugar, then the base; units joined by * are phosphorothioate-linked, units joined directly phosphodiester-linked; [ ] holds rarer units or linkages, { } end groups; capitals alone tell only the bases. e = 2'-O-(2-methoxyethyl) (MOE); [5mC] = 5-methylcytosine; d = 2'-deoxy (DNA)
Note: unit % is implicit; provide only the numeric part.

Worked set:
180819 (antisense eT*eG*e[5mC]*eA*eG*dG*dT*d[5mC]*d[5mC]*d[5mC]*dA*dG*d[5mC]*dG*d[5mC]*eA*eA*eT*eG*eT) [compound 180819]; 39
180828 (antisense eT*eT*eT*eA*eT*dT*dT*dT*dG*d[5mC]*dT*dT*dG*d[5mC]*dA*eT*eA*eG*eT*eT) [compound 180828]; 43
101757 (antisense eA*eG*eG*eT*eG*d[5mC]*dT*d[5mC]*dA*dG*dG*dA*d[5mC]*dT*d[5mC]*e[5mC]*eA*eT*eT*eT) [compound 101757]; 17
180814 (antisense eG*eT*e[5mC]*eT*eT*dA*d[5mC]*dA*d[5mC]*dA*dT*dG*dT*dA*dT*eA*eG*eA*e[5mC]*eA) [compound 180814]; 14

Now consider a different substance.
% Inhibition of RANKL mRNA for 180812 (antisense eT*e[5mC]*e[5mC]*eG*eG*dA*dT*d[5mC]*d[5mC]*dA*dG*d[5mC]*dA*dG*dG*eG*eA*eA*eG*eG) [compound 180812] is 5

The origin of these recorded values is patent US20050060764A1.
